Sourced from ChEMBL document CHEMBL1130933

- assayRemarks: Inhibitory effect on p24 production in HIV-infected peripheral blood mononuclear cells.
- Assay type: functional
- measurementSetup: Homo sapiens
Please go through the items and note down their pIC50.
Scale for pIC50: -log10 of concentration given in mol/L; no unit attached.

Task item: I would be grateful if you could share the reported pIC50 for S=C(NCCc1ccccn1)Nc1ccc(Br)cn1 [TROVIRDINE] .
Reply: 8.15

Task item: Fill blank: measured pIC50 of the compound "S=C(NCCN1CCNCC1)Nc1ccc(Br)cn1" is ____.
Reply: 8.70

Task item: Dear colleague, I am looking for the recorded pIC50 of the following compound: Cc1cn([C@H]2C[C@H](N=[N+]=[N-])[C@@H](CO)O2)c(=O)[nH]c1=O [ZIDOVUDINE]
Reply: 8.22
